Assay: Gefitinib solubility in methanol and methanol:water mixtures without acetic acid (HPLC)
Assay type: physicochemical
Settings: methanol:water 70:30, organic solvent or mixture, thermodynamic from solid; Methanol:H2O 70:30, 20° C., 24 hour stirring
Readout Name: solubility at 24 h (µg/mL)
Just the number please, in µg/mL, no unit attached.

Recall and state the measured solubility at 24 h for "COc1cc2ncnc(Nc3ccc(F)c(Cl)c3)c2cc1OCCCN1CCOCC1" .
4000

---

Test: physchem
Conditions: methanol:water 90:10 with acetic acid, 20 °C, organic solvent or mixture, thermodynamic from solid
Readout Name: solubility

Recall and state the measured solubility for COc1cc2ncnc(Nc3ccc(F)c(Cl)c3)c2cc1OCCCN1CCOCC1 [gefitinib] .
> 60 mg/mL
